Sourced from patent US20180208675A1

# Tgt: human TFPI alpha (full-length TFPIα) (human, UniProt P10646 29-304)
# Method description: cell-based or functional assay
Experimental endpoint: thrombin peak (nM) at 25.0 nM, FVIII-neutralised plasma + 2 nM TFPIα
Give the value in nM but do not write nM after it.

INPUT: Which thrombin peak (nM) at 25.0 nM, FVIII-neutralised plasma + 2 nM TFPIα value belongs to Fab 0095 (Fab fragment of mAb 2014) (Fab, V domains shown, KPI-2 specific) VH: EVQLVESGGGLVKPGGSLRLSCAASGFTFSNYAMSWVRQAPGKGLEWVSTISRSGSYSYYADSVKGRFTISRDNAKNSLYLQMNSLRAEDTAVYYCARLGGYDEGDAMDSWGQGTTVTVSS VL: DIVMTQTPLSLSVTPGQPASISCKSSQSLLESDGKTYLNWLLQRPGESPKLLIYLVSILDSGVPDRFSGSGSGTDFTLKISRVEAEDVGVYYCLQATHFPQTFGGGTKVEIKR ?
OUTPUT: 22.4
